Consider the following compounds and their measured CPE inhibition readings.
assay: inhibitors of Bluetongue virus cytopathic effect, confirmation, arbovirus, BSR cells (AID 1250); settings: BSR cells, Bluetongue virus CPE, ATP luminescence, 72 h; at 20 µM (top of the series)
READOUT LABEL: CPE inhibition (%)

COMPOUND | RECORDED RESULT
CC(C)(CO)CNC(=O)CC1C(=O)NCCN1CC(c1ccccc1)c1ccccc1 (stereo unspecified) | 1.48
Cc1ccc(-c2cc(-c3ccccc3)no2)c(O)c1 | 15.6
CC1=C(C#N)C(=O)NC(=O)/C1=C\c1ccc(-c2cc(C)c(C)cc2[N+](=O)[O-])o1 | 4.65
Cc1ccc(CSCc2nc3ccccc3[nH]2)cc1 | 12.9
O=c1oc(-c2ccccc2)nc2sc3c(c12)CCCC3 | 24.9
O=C(O)CCCC(=O)Nc1nc2n(n1)C(c1ccc(F)cc1)CC(c1ccc(Cl)cc1)N2 (stereo unspecified) | 2.43
c1ccc(-c2csc3ncnc(NCCCN4CCOCC4)c23)cc1 | 4.19
COC(=O)c1sccc1NC(=O)CSc1ccccc1NS(=O)(=O)c1ccc(Br)cc1 | 18.5
Nc1nc2ccccc2n1/N=C/c1ccc(-c2ccccc2)o1 | 12.9
Cc1ccc(-n2cccc2/C=C2\C(=N)N3N=C(C(C)C)SC3=NC2=O)cc1 | 25.2
CC1CC(C)CN(c2nc(NCc3ccco3)nc(N)c2[N+](=O)[O-])C1 (stereo unspecified) | 25.5
